Test system: AKT protein phosphorylated on serine 473 (P-AKT-S473)
Assay: Study of pAKT expression in PC3 human prostate carcinoma cells measured by the MSD Multi-spot Biomarker Detection technique (Test B)
Assay type: cell-based
Conditions: PC-3, inhibition of AKT phosphorylation (P-AKT-S473), MSD sandwich immunoassay, 1 to 2 h incubation, absolute IC50, mean of 2 experiments
observationType: IC50 (nM)
Give bare numbers, in nM.

Here's what some known entries look like.
# compound, reported
records = [
    ("Cn1c(CC(=O)Nc2ccc(F)c(I)c2)nc(N2CCOCC2)cc1=O [Example 93]", 63),
    ("Cn1c(CC(=O)Nc2ccc(F)c(C3CC3)c2)nc(N2CCOCC2)cc1=O [Example 86]", 26),
]

Need IC50 for each of these compounds.
1. O=C(Cc1nc(N2CCOCC2)cc(=O)[nH]1)Nc1cccc(F)c1O [Example 87]
2. O=C(Cc1nc(N2CCOCC2)cc(=O)[nH]1)Nc1ccccc1OCCN1CCCC1 [Example 112]

1. 75
2. 23

###

Test system: AKT protein phosphorylated on serine 473 (P-AKT-S473)
Assay: Study of pAKT expression in PC3 human prostate carcinoma cells measured by the MSD Multi-spot Biomarker Detection technique (Test B)
Type: cell-based
Settings: PC-3, inhibition of AKT phosphorylation (P-AKT-S473), MSD sandwich immunoassay, 1 to 2 h incubation, absolute IC50, mean of 2 experiments
Class (required): determined from IC50; valid ranges are lower range = under 40 nM, middle range = from 40 nM up to 200 nM, upper range = 200 nM and over

Reference set, count: 6
# compound, labelClass
rows = [
    ("O=C(Cc1nc(N2CCOCC2)cc(=O)[nH]1)Nc1cccc2c1NCCC2", "upper range"),
    ("CCOc1cccc2c1CCN2C(=O)Cc1nc(N2CCOCC2)cc(=O)[nH]1", "middle range"),
    ("C[C@H]1Cc2ccccc2N1C(=O)Cc1nc(N2CCOCC2)cc(=O)[nH]1", "lower range"),
    ("O=C(Cc1nc(N2CCOCC2)cc(=O)[nH]1)Nc1ccc(F)cc1OCC1CCNCC1", "middle range"),
    ("N#Cc1cc(NC(=O)Cc2nc(N3CCOCC3)cc(=O)[nH]2)ccc1F", "upper range"),
    ("O=C(Cc1nc(N2CCOCC2)cc(=O)[nH]1)Nc1ccsc1", "lower range"),
]

Please classify: O=C(Cc1nc(N2CCOCC2)cc(=O)[nH]1)Nc1cccc(OC(F)(F)C(F)F)c1 middle range

Category of O=C(Cc1nc(N2CCOCC2)cc(=O)[nH]1)Nc1cc(Cl)c(F)c(Cl)c1 : middle range

Hi there! Could you help me figure out the category for COCC1Cc2ccccc2N1C(=O)Cc1nc(N2CCOCC2)cc(=O)[nH]1 (stereo not shown) please? lower range

###

System: AKT protein phosphorylated on serine 473 (P-AKT-S473)
Test: Study of pAKT expression in PC3 human prostate carcinoma cells measured by the MSD Multi-spot Biomarker Detection technique (Test B)
Assay type: cell-based
Conditions: PC-3, inhibition of AKT phosphorylation (P-AKT-S473), MSD sandwich immunoassay, 1 to 2 h incubation, absolute IC50, mean of 2 experiments
observationType: pIC50
Numbers only, as −log10 of the molar value.

Record excerpt, results attached:
# compound, reported
data = [
    ("Cn1c(CC(=O)Nc2cc(F)c(F)c(F)c2)nc(N2CCOCC2)cc1=O", 6.66),
    ("O=C(Cc1nc(N2CCOCC2)cc(=O)[nH]1)Nc1cccnc1", 5.99),
    ("Cn1c(CC(=O)Nc2ccc(F)c(CO)c2)nc(N2CCOCC2)cc1=O", 5.71),
    ("Cc1cccc2c1CCN2C(=O)Cc1nc(N2CCOCC2)cc(=O)n1C", 7.59),
    ("O=C(Cc1nc(N2CCOCC2)cc(=O)[nH]1)N1CCc2cc(F)ccc21", 8.15),
]

Here are 3 compounds. What values of pIC50 were reported for them?
1. O=C(Cc1nc(N2CCOCC2)cc(=O)[nH]1)Nc1cccc2[nH]ccc12
2. CCN(CC)CC1CN(C(=O)Cc2nc(N3CCOCC3)cc(=O)[nH]2)c2ccccc21 (centres unmarked)
3. COC(=O)c1cc(F)ccc1NC(=O)Cc1nc(N2CCOCC2)cc(=O)[nH]1

6.92
7.42
6.36

Attribution: patent US8993565B2
